# Tested on: HCT116 cells
# protocol notes: Tumor cell proliferation (Alamar Blue), HCT116
# Format: cell-based
# condition notes: Homo sapiens, HCT-116, 72 h, bounds given in μM
assay readout: IC50

Before answering, review these 10 worked examples.
# structure smiles, IC50
records = [
    ("N#CCc1cn2ncnc(N)c2c1-c1ccc(NC(=O)Nc2cc(C(F)(F)F)ccn2)c(F)c1", "1.5 to 5 µM"),
    ("CC(=O)c1cn2ncnc(N)c2c1-c1ccc(NC(=O)Nc2cc(C(F)(F)F)ccn2)cc1", "1.5 to 5 µM"),
    ("Nc1ncnn2cc(CN3CCOCC3)c(-c3ccc(NC(=O)Nc4cc(C(F)(F)F)ccc4F)cc3)c12", "1.5 to 5 µM"),
    ("CNC(=O)c1cn2ncnc(N)c2c1-c1ccc(NC(=O)Nc2cc(C(C)(C)C)ccn2)cc1", "1.5 to 5 µM"),
    ("N#Cc1cn2ncnc(N)c2c1-c1ccc(NC(=O)Nc2cc(C(F)(F)F)ccc2F)cc1", "1.5 to 5 µM"),
    ("Nc1ncnn2cc(CN3CCOCC3)c(-c3ccc(NC(=O)Nc4cc(C(F)(F)F)ccn4)cc3)c12", "1.5 to 5 µM"),
    ("Nc1ncnn2cc(-c3nc(CO)co3)c(-c3ccc(NC(=O)Nc4cc(C(F)(F)F)ccc4F)cc3)c12", "< 1.5 µM"),
    ("COCc1cn2ncnc(N)c2c1-c1ccc(NC(=O)Nc2cc(C(F)(F)F)ccc2F)cc1", "1.5 to 5 µM"),
    ("CCOC(=O)c1coc(-c2cn3ncnc(N)c3c2-c2ccc(NC(=O)Nc3cc(C(F)(F)F)ccn3)cc2)n1", "1.5 to 5 µM"),
    ("N#Cc1cn2ncnc(N)c2c1-c1ccc(NC(=O)Nc2ccnc(C(F)(F)F)c2)cc1", "5 to 10 µM"),
]

Required: IC50, one value per compound below.
1. COCc1cn2ncnc(N)c2c1-c1ccc(NC(=O)Nc2cc(F)cc(C(F)(F)F)c2)cc1
2. COCc1cn2ncnc(N)c2c1-c1ccc(NC(=O)Nc2cc(C(C)(C)C)nn2-c2ccc(F)cc2)cc1
3. CC(C)(C)c1cc(NC(=O)Nc2ccc(-c3c(C#N)cn4ncnc(N)c34)cc2)on1
4. Nc1ncnn2cc(CO)c(-c3ccc(NC(=O)Nc4cc(C(F)(F)F)ccn4)c(F)c3)c12
5. Nc1ncnn2cc(-c3cnco3)c(-c3ccc(NC(=O)Nc4cc(C(F)(F)F)ccn4)cc3)c12
6. COCc1cn2ncnc(N)c2c1-c1ccc(NC(=O)Nc2cc(C(F)(F)F)ccn2)c(F)c1
7. CC(C)(CN1CCOCC1)NC(=O)c1cn2ncnc(N)c2c1-c1ccc(NC(=O)Nc2cc(C(F)(F)F)ccc2Cl)cc1

1. 1.5 to 5 µM
2. 1.5 to 5 µM
3. < 1.5 µM
4. 1.5 to 5 µM
5. < 1.5 µM
6. 1.5 to 5 µM
7. 1.5 to 5 µM
